# Study target: T1, cTnI quality control product recombinant protein (human, UniProt P19429 2-210, limits assumed)
# T1 construct: treated as the same molecule; also called cTnI antigen; cardiac troponin I
# T1 sequence (P19429 2-210 limits assumed): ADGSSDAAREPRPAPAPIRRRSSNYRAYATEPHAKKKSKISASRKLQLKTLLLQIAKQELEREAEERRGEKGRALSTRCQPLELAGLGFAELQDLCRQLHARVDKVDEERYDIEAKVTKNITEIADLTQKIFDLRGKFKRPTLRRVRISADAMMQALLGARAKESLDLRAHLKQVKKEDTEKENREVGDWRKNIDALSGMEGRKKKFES
# Test summary: AMC sensor, antibody immobilised, cTnI in solution
Measured endpoint: pKd
pKd field: float, defined as -log10 of concentration (mol/L).

State its pKd for this binder: Mutation 1-41 (antibody, V domains shown, Built as m8) VH: EVQLQQSGPELVKPGASVKMSCKASGYTFTLYVIHWVKQKPGQGLEWIGYINPYIDGTKYNEKFKGKATLTVDKSSSTAFMELSSLTSEDSAVYYCARSGYGNYGLAWLAYWGQGTLVTVSA VL: QAVVIQESALTTSPGETVTLTCRSSTGAVTTSNYANWVQEKPDHLFTGLIGGSQNRAPGVPARFSGSLIGDKAALTITGAQTEDEAIYFCALVYSNQWVFGGGTKLTVLG 8.10

State its pKd for this binder: Mutation 1-10 (antibody, V domains shown, Built as m8) VH: EVQLQQSGPELVKPGASVKMSCKASGYTFTLYVLHWVKQKPGQGLEWIGYIQPYLDGTKYNEKFKGKATLTVDKSSSTAFMELSSLTSEDSAVYYCARSGYGNYGLAWLAYWGQGTLVTVSA VL: QAVVIQESALTTSPGETVTLTCRSSTGAVTTSQYANWVQEKPDHLFTGLIGGSNNRAPGVPARFSGSLIGDKAALTITGAQTEDEAIYFCALVYSNQWVFGGGTKLTVLG 9.14

State its pKd for this binder: Mutation 1-29 (antibody, V domains shown, Built as m8) VH: EVQLQQSGPELVKPGASVKMSCKASGYTFTLYVIHWVKQKPGQGLEWIGYIQPYIDGTKYNEKFKGKATLTVDKSSSTAFMELSSLTSEDSAVYYCARSGYGGYGLAWLAYWGQGTLVTVSA VL: QAVVIQESALTTSPGETVTLTCRSSTGAATTSQYANWVQEKPDHLFTGLIGGSQNRAPGVPARFSGSLIGDKAALTITGAQTEDEAIYFCALVYSNNWVFGGGTKLTVLG 8.42

State its pKd for this binder: Mutation 1-13 (antibody, V domains shown, Built as m8) VH: EVQLQQSGPELVKPGASVKMSCKASGYTFTIYVLHWVKQKPGQGLEWIGYINPYIDGTKYNEKFKGKATLTVDKSSSTAFMELSSLTSEDSAVYYCARSGYGNYGLAWLAYWGQGTLVTVSA VL: QAVVIQESALTTSPGETVTLTCRSSTGAATTSNYANWVQEKPDHLFTGLIGGSQNRAPGVPARFSGSLIGDKAALTITGAQTEDEAIYFCALVYSNNWVFGGGTKLTVLG 9.86

src = patent US20220033484A1
